abundance fitness: recorded values
B1: Zinc finger homeobox protein 3, residues 2643 to 2698; numbered along this chain, Q15911 (parent)
chain: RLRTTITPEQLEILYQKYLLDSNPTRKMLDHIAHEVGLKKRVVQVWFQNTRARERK

variants of: B1; assay: abundance fitness (aPCA) (normalised: wild type 0, dead -1); higher = more abundant; growth selection in yeast, the domain comes from the species named; settings: Homo sapiens

Please review the entries below; each comes with its answer.
Reported abundance fitness, variant K17N : ____
0.228

And what about the variant L29E ?
-0.159

And what about the variant G37W ?
-0.92

And what about the variant A52T ?
-0.419

And what about the variant E54H ?
-0.229

***
Reported abundance fitness, variant Y18W : ____
-0.401

And what about the variant P24W ?
-0.165

And what about the variant L11P ?
-0.494

And what about the variant I6C ?
-0.022

And what about the variant G37H ?
-0.404

And what about the variant Q44Y ?
-0.114

And what about the variant K56Q ?
0.032

And what about the variant W46M ?
-0.956

And what about the variant T50G ?
-0.549

And what about the variant P8Y ?
0.116

And what about the variant Q10K ?
-0.432

And what about the variant R3W ?
0.241

And what about the variant R53K ?
-0.045

And what about the variant T7W ?
-0.719

And what about the variant E12K ?
-0.625

And what about the variant E35N ?
-1.01
